- Tested on: P388 leukemia ip, CD2F1 mice, survival T/C
- PROTOCOL: NCI In Vivo Anticancer Drug Screen. Data for tumor model P388 Leukemia (intraperitoneal) in CD2F1 (CDF1) mice
- CONDITION DESCRIPTION: endpoint: median survival time; dose: 1.56 mg/kg/injection; schedule: Q01DX005 (ip); vehicle: Klucel (hydroxypropylcellulose) (HPC); higher = longer survival
Toxic doses and inconclusive results are not listed.
Would you kindly list T/C for each of these compounds?

Q: Fill in reported T/C for this entry: CC(=O)NC(Cn1cc(C(N)=O)ccc1=N)C(=O)O (centres undefined)
A: 102 % of control

Q: Fill in reported T/C for this entry: Nc1ncnc2[nH]c(=S)[nH]c12
A: 110 % of control

Q: Fill in reported T/C for this entry: CN1C2C=C(c3ccccc3)CC1CC2 (centres undefined)
A: 105 % of control

Q: Fill in reported T/C for this entry: O=C(CCl)c1ccc([N+](=O)[O-])cc1
A: 100 % of control
